test system: CEM cells HIV-1 protection, formazan growth assay; assay: NCI AIDS Antiviral Assay; settings: measured here: growth of uninfected CEM cells
Where a SMILES comes first, the peptide text is derived from it.

Molecule: Cc1c(NC(=S)NN)c(=O)n(-c2ccccc2)n1C
IC50: > 200 µM
//
Molecule: COc1ccccc1Nc1nc(NNC(=O)Cc2ccccc2)nc(NNC(=O)c2ccncc2)n1
IC50: > 50.1 µM
//
Molecule: NC1=NS(=O)(=O)Nc2nc(-c3ccccc3)[nH]c21
IC50: > 20 µM
//
Molecule: C[N+]1(C)CCCC1C(=O)[O-] (stereo not given)
IC50: > 1740 µM
//
Molecule: O=[N+]([O-])c1ccc(NCCS(=O)(=O)O)c([N+](=O)[O-])c1
IC50: > 794 µM
//
Molecule: CCC(C)C(NC(=O)C(CCCN=C(N)N)NC(=O)C(CC(N)=O)NC(=O)C(Cc1cnc[nH]1)NC(=O)C(N)CC(C)C)C(=O)NC(C(=O)NC(CC(C)C)C(=O)NC(C(=O)NC(Cc1cnc[nH]1)C(=O)O)C(C)O)C(C)CC (stereo not given) (H-LHNRIILTH-OH; configuration not given here)
IC50: > 44.7 µM
//
Molecule: Cc1cc2[nH]c3c(C#N)c(O)c(C)c(=O)n3c2cc1C
IC50: > 166 µM
//
Molecule: CC(C)CCC[C@H](C)[C@H]1CC[C@H]2[C@@H]3CC=C4CC(OC(=O)OC5CCC6(C)CC7CCC6(OO7)C5(C)C)CC[C@]4(C)[C@H]3CC[C@]12C (stereo not given in full)
IC50: > 200 µM
//
Molecule: Cn1c(=O)c(NC(=O)C(Cl)(Cl)Cl)nc2ccccc21
IC50: > 93.3 µM
//
Molecule: CCOP(=O)(OCC)/C(C#N)=C/c1ccc(C#N)cc1
IC50: > 123 µM
//
Molecule: Cn1c2c(c3cc(Cl)cc(Cl)c31)-c1ncncc1CC2
IC50: > 61.7 µM
//
Molecule: O=C(NC1CCCCC1)/C(=C\c1ccccc1)NC(=O)c1ccccc1
IC50: > 200 µM
//
Molecule: CC(C)(C)OC(=O)NC(Cc1ccc(O)cn1)C(=O)O (stereo not given)
IC50: > 200 µM
//
Molecule: CCN(CC)/[N+]([O-])=N/OS(=O)(=O)N(C)C
IC50: > 200 µM
//
Molecule: Cc1cc(C)nc(NS(=O)(=O)c2ccc(NC(=O)NC(F)(F)F)cc2)n1
IC50: > 200 µM
//
Molecule: O=c1[nH]c(SCc2c(Cl)c(Cl)c(Cl)c(Cl)c2Cl)nc(=S)[nH]1
IC50: 83.2 µM
//
Molecule: COC(=O)C1Cc2cc3c(cc2C1)CCC3
IC50: > 200 µM
//
Molecule: C(=Nc1ccc(-c2cc(-c3ccccc3)nc3ccc4ccccc4c23)cc1)c1ccccc1
IC50: 31.6 µM
//
Molecule: O=C(c1cc2c(C(F)(F)F)onc2c2ccccc12)C(F)(F)F
IC50: 8.32 µM
//
Molecule: CC1(C)CC(=O)c2c(nc3ccc4ccccc4c3c2-c2ccc(NC(=O)CCCCCCCCC(=O)Nc3ccc(-c4c5c(nc6ccc7ccccc7c46)CC(C)(C)CC5=O)cc3)cc2)C1
IC50: > 100 µM
